pIC50: −log10 of the molar value.
Observed pIC50 for P2X purinoceptor 7 (Homo sapiens, UniProt Q99572), reported per entry below.
measure: pIC50

| compound | measured.on | measure | reported.value |
| --- | --- | --- | --- |
| O=C(c1ccc(F)cc1Cl)N1CCn2c(nnc2-c2cccc3cccnc23)C1 | P2X purinoceptor 7 (Homo sapiens, UniProt Q99572) | pIC50 | 6.60 |
| CN1C(=O)N(c2ccccn2)CC1C(=O)NCc1cccc(C(F)(F)F)c1Cl (stereo not drawn) | P2X purinoceptor 7 (Homo sapiens, UniProt Q99572) | pIC50 | 8.10 |
| Cc1nn(-c2ccc(Cl)cn2)c(C)c1CC(=O)NCc1ccc(F)cc1Cl | P2X purinoceptor 7 (Homo sapiens, UniProt Q99572) | pIC50 | 6.60 |
| Cc1nn(-c2ccccc2)c(C)c1CC(=O)NCc1ccc(F)cc1C(F)(F)F | P2X purinoceptor 7 (Homo sapiens, UniProt Q99572) | pIC50 | 6.80 |
| Cc1ccccc1N1CCN(Cc2ccccc2F)C(=O)C1=O | P2X purinoceptor 7 (Homo sapiens, UniProt Q99572) | pIC50 | 6.00 |
| Cc1cccnc1N1C[C@@H](C(=O)NCc2ccc(F)c(F)c2Cl)N(C)C1=O | P2X purinoceptor 7 (Homo sapiens, UniProt Q99572) | pIC50 | 7.60 |
| Cc1ccc(N2C[C@@H](C(=O)NCc3cccc(C(F)(F)F)c3Cl)N(C)C2=O)cn1 | P2X purinoceptor 7 (Homo sapiens, UniProt Q99572) | pIC50 | 8.00 |
| Cc1ccc(N2C[C@@H](C(=O)NCc3cccc(C(F)(F)F)c3Cl)N(C)C2=O)c(C)n1 | P2X purinoceptor 7 (Homo sapiens, UniProt Q99572) | pIC50 | 8.10 |
| CC(C)N1C(=O)CC[C@H]1C(=O)NCc1ccc(F)c(Cl)c1Cl | P2X purinoceptor 7 (Homo sapiens, UniProt Q99572) | pIC50 | 8.30 |
| CN1C(=O)N(c2nccc(C(F)(F)F)n2)C[C@H]1C(=O)NCc1ccc(Cl)cc1Cl | P2X purinoceptor 7 (Homo sapiens, UniProt Q99572) | pIC50 | 7.50 |
| O=C(c1ccc(Cl)c(C(F)(F)F)c1)N1CCn2c(nnc2-c2cnccn2)C1 | P2X purinoceptor 7 (Homo sapiens, UniProt Q99572) | pIC50 | 7.50 |
| CN1C(=O)N(c2cncn2C)C[C@H]1C(=O)NCc1cccc(C(F)(F)F)c1Cl | P2X purinoceptor 7 (Homo sapiens, UniProt Q99572) | pIC50 | 8.30 |
| O=C(c1cccc(C(F)(F)F)c1Cl)N1CCn2c(nnc2N2CCOCC2)C1 | P2X purinoceptor 7 (Homo sapiens, UniProt Q99572) | pIC50 | 6.60 |
| CN1C(=O)N(c2cccnc2C#N)C[C@H]1C(=O)NCc1ccc(Cl)cc1Cl | P2X purinoceptor 7 (Homo sapiens, UniProt Q99572) | pIC50 | 7.50 |
| CCN1C(=O)c2ccccc2C1C(=O)NCc1cccc(C(F)(F)F)c1Cl (stereo not drawn) | P2X purinoceptor 7 (Homo sapiens, UniProt Q99572) | pIC50 | 7.10 |
| C[C@@H]1CN(Cc2ccc(Cl)cc2Cl)C(=O)C(=O)N1c1ccccc1 | P2X purinoceptor 7 (Homo sapiens, UniProt Q99572) | pIC50 | 7.60 |
| O=C(c1cccc(C(F)(F)F)c1Cl)N1CCn2c(nnc2C2CCCCC2)C1 | P2X purinoceptor 7 (Homo sapiens, UniProt Q99572) | pIC50 | 7.30 |
| CN1C(=O)N(c2cc(C(F)(F)F)ncn2)C[C@H]1C(=O)NCc1ccc(Cl)cc1Cl | P2X purinoceptor 7 (Homo sapiens, UniProt Q99572) | pIC50 | 7.50 |
| CN1C(=O)NC[C@H]1C(=O)NCc1ccc(F)cc1Cl | P2X purinoceptor 7 (Homo sapiens, UniProt Q99572) | pIC50 | 7.40 |
| CN1C(=O)CC[C@H]1C(=O)NCc1ccc(F)c(Cl)c1Cl | P2X purinoceptor 7 (Homo sapiens, UniProt Q99572) | pIC50 | 7.90 |
| Cc1c(CN2CCOCC2)cccc1N1CCN(Cc2ccc(F)cc2Cl)C(=O)C1=O | P2X purinoceptor 7 (Homo sapiens, UniProt Q99572) | pIC50 | 7.00 |
| O=C(c1cccc(Cl)c1Cl)N1CCn2c(nnc2-c2ccc(F)cc2F)C1 | P2X purinoceptor 7 (Homo sapiens, UniProt Q99572) | pIC50 | 7.90 |
| CCN1C(=O)C(C)(C)C[C@H]1C(=O)NCc1ccc(F)cc1Cl | P2X purinoceptor 7 (Homo sapiens, UniProt Q99572) | pIC50 | 7.30 |
| CN1C(=O)N(c2cncnc2)C[C@H]1C(=O)NCc1ccc(Cl)cc1Cl | P2X purinoceptor 7 (Homo sapiens, UniProt Q99572) | pIC50 | 7.30 |
| O=C1CN(C(=O)c2cccc(Cl)c2Cl)CCN1Cc1ccc(F)cc1Cl | P2X purinoceptor 7 (Homo sapiens, UniProt Q99572) | pIC50 | 6.80 |
| O=C(c1cccc(C(F)(F)F)c1Cl)N1CCn2c(nnc2N2CCCCC2)C1 | P2X purinoceptor 7 (Homo sapiens, UniProt Q99572) | pIC50 | 7.00 |
| O=C(c1cccc(C(F)(F)F)c1Cl)N1CCn2c(Br)nnc2C1 | P2X purinoceptor 7 (Homo sapiens, UniProt Q99572) | pIC50 | 8.10 |
| CN1CCOc2cccc(N3CCN(Cc4ccc(F)cc4Cl)C(=O)C3=O)c21 | P2X purinoceptor 7 (Homo sapiens, UniProt Q99572) | pIC50 | 6.60 |
| O=C(c1ccc(Cl)c(Cl)c1)N1CCn2c(nnc2-c2cnccn2)C1 | P2X purinoceptor 7 (Homo sapiens, UniProt Q99572) | pIC50 | 7.50 |
| CN1[C@H](C(=O)NCc2ccc(F)cc2C(F)(F)F)CCS1(=O)=O | P2X purinoceptor 7 (Homo sapiens, UniProt Q99572) | pIC50 | 6.40 |
| CC1(C(=O)NCc2ccc(Cl)cc2Cl)CCC(=O)N1C1CC1 (stereo not drawn) | P2X purinoceptor 7 (Homo sapiens, UniProt Q99572) | pIC50 | 8.00 |
| O=C1C(=O)N(c2ccccc2I)CCN1Cc1ccc(F)cc1Cl | P2X purinoceptor 7 (Homo sapiens, UniProt Q99572) | pIC50 | 8.10 |
| COc1ccccc1-n1nc(C)c(CC(=O)NCc2ccc(F)cc2Cl)c1C | P2X purinoceptor 7 (Homo sapiens, UniProt Q99572) | pIC50 | 6.30 |
| Cc1ccccc1N1CCN(Cc2cccc(Cl)c2Cl)C(=O)C1=O | P2X purinoceptor 7 (Homo sapiens, UniProt Q99572) | pIC50 | 7.60 |
| O=C1CN(C(=O)c2cccc(C(F)(F)F)c2Cl)CCN1CC1CCCCC1 | P2X purinoceptor 7 (Homo sapiens, UniProt Q99572) | pIC50 | 7.10 |
| CN1C(=O)NC[C@H]1C(=O)NCc1cccc(C(F)(F)F)c1F | P2X purinoceptor 7 (Homo sapiens, UniProt Q99572) | pIC50 | 7.40 |
| O=C(c1ccc(Cl)cc1Cl)N1CCn2c(nnc2-c2ccncn2)C1 | P2X purinoceptor 7 (Homo sapiens, UniProt Q99572) | pIC50 | 7.50 |
| CC(C)CN1CC(C(=O)NCc2ccc(Cl)cc2Cl)CC1=O (stereo not drawn) | P2X purinoceptor 7 (Homo sapiens, UniProt Q99572) | pIC50 | 7.10 |
| CN(C)c1nnc2n1CCN(C(=O)c1cccc(C(F)(F)F)c1Cl)C2 | P2X purinoceptor 7 (Homo sapiens, UniProt Q99572) | pIC50 | 7.70 |
| Cc1ccccc1N1CCN(C(=O)c2ccc(Cl)cc2Cl)CC1=O | P2X purinoceptor 7 (Homo sapiens, UniProt Q99572) | pIC50 | 7.20 |
| O=C(NCc1cccc(C(F)(F)F)c1Cl)C1CC(=O)N(C2CC2)C1 (stereo not drawn) | P2X purinoceptor 7 (Homo sapiens, UniProt Q99572) | pIC50 | 7.50 |
| O=C(c1cccc(F)c1F)N1CCN(c2ccc(F)cc2Cl)C(=O)C1 | P2X purinoceptor 7 (Homo sapiens, UniProt Q99572) | pIC50 | 6.50 |
| CN1C(=O)OC[C@@H]1C(=O)NCc1cccc(C(F)(F)F)c1Cl | P2X purinoceptor 7 (Homo sapiens, UniProt Q99572) | pIC50 | 7.30 |

These measurements were taken from ChEMBL document CHEMBL2218064.
